- measurement-target: BCL2 WT (Homo sapiens (Human), UniProt P10415)
- Sequence (P10415 other isoform, or with tags, fused parts or gaps): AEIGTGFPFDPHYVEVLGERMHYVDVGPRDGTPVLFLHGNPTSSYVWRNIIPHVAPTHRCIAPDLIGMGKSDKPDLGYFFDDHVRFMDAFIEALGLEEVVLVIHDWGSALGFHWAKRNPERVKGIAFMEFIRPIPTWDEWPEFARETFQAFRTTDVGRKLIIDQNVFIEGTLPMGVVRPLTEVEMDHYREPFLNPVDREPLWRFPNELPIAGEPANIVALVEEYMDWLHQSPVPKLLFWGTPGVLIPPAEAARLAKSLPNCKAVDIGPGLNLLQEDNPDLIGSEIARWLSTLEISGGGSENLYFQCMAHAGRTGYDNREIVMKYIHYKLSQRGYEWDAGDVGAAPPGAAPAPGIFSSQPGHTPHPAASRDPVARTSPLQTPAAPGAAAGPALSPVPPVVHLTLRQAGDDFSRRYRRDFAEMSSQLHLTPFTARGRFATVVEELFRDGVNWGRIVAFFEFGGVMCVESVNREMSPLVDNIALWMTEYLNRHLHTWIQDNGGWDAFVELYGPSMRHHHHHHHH
- experimental-protocol: TR-FRET competitive binding assay, BCL2 WT
- condition-details: Ki determined from IC50, read-out: TR_FRET EKI_Bcl2 WT
property-measured: Ki (nM)

In the examples that follow, each entry is paired with its recorded Ki.
(Q) // lookup Ki for Cc1c(N(C(=O)c2cc(-c3cc4c(cc3C(=O)N3Cc5ccccc5C[C@H]3CN3CCCCC3)CN(C(=O)Cc3ccc(OCCN5CCO[C@@H](C)C5)cc3)CC4)n(C)c2C)c2ccc(O)cc2)cc(C#N)n1C [Example 150]
(A) 0.04

(Q) // lookup Ki for Cc1c(N(C(=O)c2cc(-c3cc4c(cc3C(=O)N3Cc5ccccc5C[C@H]3CN3CC[C@H](C)C3)CN(C(=O)Cc3ccc(OCCN5CCOCC5)cc3F)CC4)n(C)c2C)c2ccc(O)cc2)cc(C#N)n1C [Example 157]
(A) 0.04

(A) Cc1c(C(=O)N(c2ccc(O)cc2)c2cc(C#N)n(C(F)F)c2C)cc(-c2cc3c(cc2C(=O)N2Cc4ccccc4C[C@H]2CN2CCCCC2)CN(C(=O)Cc2ccc(OCCN4C[C@@H](C)O[C@@H](C)C4)cc2)CC3)n1C [Example 129]
(B) Cc1c(C(=O)N(c2ccccc2)c2cccc(C#N)c2)cc(-c2cc3c(cc2C(=O)N2Cc4ccccc4C[C@H]2C)CN(C(=O)Cc2ccc(OCCN4CCOCC4)cc2)CC3)n1C [Example 218]
(C) Cc1c(N(C(=O)c2cc(-c3cc4c(cc3C(=O)N3Cc5ccccc5C[C@H]3C)CN(C(=O)Cc3ccc(OCCN(C)C)cc3F)CC4)n(C)c2C)c2ccccc2)cc(C#N)n1C [Example 213]
(Q) Order by Ki, ascending. Please respond by ranking the labels in the order requested.
(A) C, B, A
